# Target desc: T1, soluble form of the Variant-specific Surface Glycoprotein (sVSG) of T. b. brucei AnTat1.1 (Trypanosoma brucei brucei AnTat1.1, UniProt P06015)
# T1 construct: Variant-specific Surface Glycoprotein (VSG) of Trypanosoma brucei brucei AnTat1.1, soluble form (sVSG); Glycoprotein; amine-coupled to a CM5 chip for SPR; also called AnTat1.1 sVSG; soluble AnTat1.1 VSG
# Test protocol: SPR; BIAcore T100; 1000-1500 RU soluble AnTat1.1 VSG amine-coupled on a CM5 chip; Nanobody 500 to 7.8 nM at 30 µl/min in HBS (10 mM Hepes pH 7.5, 150 mM NaCl, 3.5 mM EDTA, 0.005% Tween-20); 1:1 binding model with local Rmax
# Measurement parameters: both partners purified
pKd: −log10 of the molar value.
Quick rule for you: pKd at 8 or higher means condition met, lower means condition not met.

Consider the worked cases shown below.
Binder: Nb_An-R3.7 (VHH, From the alpaca sVSG-immune library, cloned in pMES; source: E. coli WK6, purified (Ni-NTA, Superdex 75 gel filtration)) VHH: QVQLQESGGGLVQPGGSLRLSCEASGFILGYYTIGWIRQAPGKEREGVICITSAGGRTNYADSVKGRFTISRDNAKNTVYLQMNSLKPEDTAVYYCAADLINLCDSSWLRDGMNYWGKGTQVTVSS
Assigned category: condition met
--
Binder: Nb_An-R4.55 (VHH, From the alpaca sVSG-immune library, cloned in pMES; source: E. coli WK6, purified (Ni-NTA, Superdex 75 gel filtration)) VHH: QVQLQESGGGLVQPGGSLRLSCEASGFILGYYTIGWIRQAPGKEREGVICITSAGGRTNYADSVKGRFTISRDNAKNTVYLQMNSLKPEDTAVYYCAADLINLCDSSWLQDGMNYWGKGTQVTVSS
Assigned category: condition met
--
Binder: Nb_An-R4.11 (VHH, From the alpaca sVSG-immune library, cloned in pMES; source: E. coli WK6, purified (Ni-NTA, Superdex 75 gel filtration)) VHH: QVQLQESGGGLVQPGGSLRLSCEGSGFILGYYTIGWFRQAPGKEREGVSCMNSSGRTKYADSVKGRFTISRDNAKNTVYLQMNSLKPEDRAVYFCAADLINLCDSSWLRDGMNYWGKGTQVTVSS
Assigned category: condition not met

Let's switch to this binder now.
query: Identify whether the reported pKd of the following binder is 8 or greater: Nb_An-R4.29 (VHH, From the alpaca sVSG-immune library, cloned in pMES; source: E. coli WK6, purified (Ni-NTA, Superdex 75 gel filtration)) VHH: QVQLQESGGGLVQPGGSLRLSCEASGFILGYYTIGWFRQAPGKEREGVSCINSSPGTTNYADSVKGRFTISRDNAKNTVYLQMNSLKPEDTAVYYCAADLINLCDSTWVRDGMNFWGKGTQVTVSS
result: condition met
